Biological target: GGT isolated from human kidney (Homo sapiens, UniProt P19440)
Construct: GGT was isolated from human kidney; tissue National Disease Research Interchange, Philadelphia, PA; host or cells: human kidney, Triton X-100 extract of microsomes
Sequence (P19440 1-380 limits assumed): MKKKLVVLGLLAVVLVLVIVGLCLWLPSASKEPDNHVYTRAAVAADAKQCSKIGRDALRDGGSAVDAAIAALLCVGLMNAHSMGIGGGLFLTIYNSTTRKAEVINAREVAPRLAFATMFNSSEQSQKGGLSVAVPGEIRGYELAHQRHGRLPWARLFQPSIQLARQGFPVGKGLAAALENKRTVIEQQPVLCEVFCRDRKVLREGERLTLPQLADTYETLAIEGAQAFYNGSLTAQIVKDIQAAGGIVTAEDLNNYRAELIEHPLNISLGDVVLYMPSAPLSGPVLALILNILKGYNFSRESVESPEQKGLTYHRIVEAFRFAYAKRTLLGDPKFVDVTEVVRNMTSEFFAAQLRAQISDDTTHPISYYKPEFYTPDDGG
Sequence (P19440 381-569 limits assumed): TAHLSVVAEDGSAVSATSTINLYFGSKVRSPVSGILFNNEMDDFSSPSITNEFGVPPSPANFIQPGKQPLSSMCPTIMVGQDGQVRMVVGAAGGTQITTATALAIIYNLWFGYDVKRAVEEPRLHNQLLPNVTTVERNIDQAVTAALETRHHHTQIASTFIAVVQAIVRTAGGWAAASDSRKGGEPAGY
Assay: GGT transpeptidation kinetic assay (GpNA / glycyl-glycine) with GGT isolated from human kidney
Format: biochemical
Settings: glygly varied, GpNA maintained at 3 mM; read-out: Ki, competitive with respect to glygly (intrinsic value)
parameter: Ki (µM)
Report only the number, with the unit µM understood.

## Task Could you share what Ki was measured for COc1ccc(Cc2nnc(NS(=O)(=O)c3ccccc3)s2)cc1 [Compound 3] , tested on GGT isolated from human kidney (Homo sapiens, UniProt P19440)?
## Result 17.6

Entry source: patent US20100197745A1
